- Tested on: SF-295
- experiment: NCI tumour cell line growth inhibition, 48 h
The source made the active and inactive calls. No stated cut-off is given here; in the data, active = GI50 up to about 1.1 µM and inactive = higher.
metric: GI50

# annotated cases, reported GI50 shown
mol: O=c1[nH]nc(Cc2ccc(Cl)cc2)n1/N=C\CC/C=N\n1c(Cc2ccc(Cl)cc2)n[nH]c1=O
metric: GI50
recordedValue: 24.4 µM (inactive)
//
mol: COc1ccc(NC(=S)NNC(=O)c2cc(-c3ccccc3)nc3ccccc23)cc1
metric: GI50
recordedValue: 3.5 µM (inactive)
//
mol: Cc1nc2sccn2c1C(=O)OCCOCCOCCOCCOC(=O)c1c(C)nc2sccn12
metric: GI50
recordedValue: 63.4 µM (inactive)

Next, consider the following molecule.
Q. Provide value of GI50 for this record tested with SF-295: CCOC(=O)C(C)(c1cn(C)c2ccccc12)c1cn(C)c2ccccc12
A. 24.5 µM (inactive)

Hello, the source for this data is ChEMBL document CHEMBL1201862, in case you need it.
